# System: P. aeruginosa ATCC 27853
# Format: cell-based, Pseudomonas aeruginosa
# conditionInfo: ATCC 27853
Non-standard residues stand in square brackets, D forms with d. Residues, ends and D or L forms follow the SMILES beside them. dDab = NCC[C@@H](N)C(=O)O; Orn = NCCC[C@H](N)C(=O)O; Dab = NCC[C@H](N)C(=O)O
measuredEndpoint: MIC P. aeruginosa ATCC 27853 (µg/mL)
# number only, unit µg/mL dropped from output

Q: Give me measured MIC P. aeruginosa ATCC 27853, please, for this molecule: CC[C@H](C)[C@@H]1NC(=O)[C@H](Cc2c[nH]c3ccccc23)NC(=O)[C@H](CCC(=O)O)NC(=O)[C@@H]2CCCN2C(=O)[C@H]2CCCN2C(=O)[C@H](CCN)NC(=O)[C@H](C)NC(=O)[C@H](CCN)NC(=O)[C@H](CCN)NC(=O)[C@H](Cc2c[nH]c3ccccc23)NC(=O)[C@H](CCN)NC(=O)[C@@H](CCN)NC(=O)[C@H](CCCN)NC(=O)[C@H](CCN)NC1=O [Example 47] (cyclo(EWI[Dab][Orn][dDab][Dab]W[Dab][Dab]A[Dab][dP]P))
Result: 0.09

The origin of these recorded values is patent US9521846B2.
